- assay system: T1, human BCMA expressed on the cell surface (human, UniProt Q02223 1-184)
- T1 construct: The same molecule is used here for hBCMA-CHO GS cells and for the endogenous BCMA of the myeloma lines; also called Human BCMA CHO-S cell; H929
- T1 sequence: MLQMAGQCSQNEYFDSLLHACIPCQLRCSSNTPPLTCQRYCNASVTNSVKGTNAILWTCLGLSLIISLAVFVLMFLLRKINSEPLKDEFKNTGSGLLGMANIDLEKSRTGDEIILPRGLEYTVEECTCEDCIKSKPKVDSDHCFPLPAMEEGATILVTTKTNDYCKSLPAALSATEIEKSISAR
- test name: flow cytometry, 10 nM antibody on H929 cells
endpoint: MFI

binder	result
antibody ADI-38484 (antibody, V domains shown) VH: QVQLVQSGAEVKKPGSSVKVSCKASGGTFSNDVISWVRQAPGQGLEWMGVIIPIFGIANYAQKFQGRVTITADESTSTAYMELSSLRSEDTAVYYCARGRGYYSSWLHDIWGQGTMVTVSS VL: DIQMTQSPSSLSASVGDRVTITCQASQDITNYLNWYQQKPGKAPKLLIYDASNLETGVPSRFSGSGSGTDFTFTISSLQPEDIATYYCQQAFDLITFGGGTKVEIK	7720

Exercise: Any idea what MFI was measured for anti-BCMA parent antibody ADI-34861 (antibody, V domains shown, Tested as IgG (captured by anti-human Fc probe)) VH: QLQLQESGPGLVKPSETLSLTCTVSGGSISSSSYYWGWIRQPPGKGLEWIGSISYSGSTYYNPSLKSRVTISVDTSKNQFSLKLSSVTAADTAVYYCARDRGDTILDVWGQGTMVTVSS VL: DIQMTQSPSSLSASVGDRVTITCRASQSISRYLNWYQQKPGKAPKLLIYAASSLQSGVPSRFSGSGSGTDFTLTISSLQPEDFATYYCQQKYFDITFGGGTKVEIK ?
Key: 1400

Exercise: Any idea what MFI was measured for antibody ADI-38491 (antibody, V domains shown) VH: QLQLQESGPGLVKPSETLSLTCTVSGGSIVSSSYYWTWIRQPPGKGLEWIGSISIAGSTYYNPSLKSRVTISVDTSKNQFSLKLSSVTAADTAVYYCARDRGDTILDVWGQGTMVTVSS VL: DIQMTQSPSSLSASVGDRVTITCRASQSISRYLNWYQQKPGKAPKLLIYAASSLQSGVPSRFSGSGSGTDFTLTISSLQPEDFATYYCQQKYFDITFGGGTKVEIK ?
Key: 1100
